Biological target: human MGL from HeLa cells (Homo sapiens (Human), UniProt Q99685)
Sequence (Q99685 whole entry): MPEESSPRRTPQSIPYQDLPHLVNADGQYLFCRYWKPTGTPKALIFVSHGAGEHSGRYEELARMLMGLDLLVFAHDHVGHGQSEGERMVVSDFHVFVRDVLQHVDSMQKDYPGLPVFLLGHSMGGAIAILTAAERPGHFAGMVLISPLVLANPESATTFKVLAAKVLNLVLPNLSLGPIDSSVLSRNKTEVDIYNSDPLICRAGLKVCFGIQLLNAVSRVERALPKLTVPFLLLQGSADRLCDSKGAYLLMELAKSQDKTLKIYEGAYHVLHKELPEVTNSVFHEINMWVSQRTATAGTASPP
Experiment: MGL in vitro activity assay ([glycerol-1,3-3H]-oleoyl glycerol hydrolysis, activated carbon filtration)
Conditions: 300 nM [Glycerol-1,3-3H]-oleoyl glycerol, one hour
pIC50: −log10 of the molar value.
Measured Attribute: pIC50

[ask] // pIC50 lookup, key: Cn1nc(C(F)(F)F)cc1C1CCC2(C1)CN(C(=O)[C@H]1C[C@@](C)(O)C1)C2 (mixture of isomers)
[reply] 6.12

[ask] How about CCc1ccc(C2CCC3(C2)CN(C(=O)[C@H]2C[C@@](C)(O)C2)C3)cc1 (mixture of isomers) ?
[reply] 7.74

[ask] How about `CCc1nc(OC2CCC3(CC2)CN(C(=O)[C@H]2C[C@@](C)(O)C2)C3)ccc1C(F)F` ?
[reply] 7.82

[ask] How about `COc1cc(OC2CCC3(CC2)CN(C(=O)[C@H]2C[C@@](C)(O)C2)C3)ccc1C` ?
[reply] 7.48

P: Cc1cc(OC2CCC3(C2)CN(C(=O)[C@H]2C[C@@](C)(O)C2)C3)ccc1C(F)(F)F (mixture of isomers)
Q: Cc1cc(OC(F)(F)F)ccc1C1CCC2(C1)CN(C(=O)[C@H]1C[C@@](C)(O)C1)C2 (mixture of isomers)
[ask] I'm curious, which of these has a smaller pIC50 number: P or Q ? Please reply using the label of the selected record.
[reply] P

I: Cc1cc(C(F)(F)F)ccc1OC1CC2(C1)CN(C(=O)[C@H]1C[C@@](C)(O)C1)C2
II: C[C@]1(O)C[C@@H](C(=O)N2CCC3(CCC(c4ccc(C(F)(F)F)cc4)C3)CC2)C1 (mixture of isomers)
III: Cc1cc([C@H]2CCC3(C2)CN(C(=O)[C@H]2C[C@@](C)(O)C2)C3)ccc1OC(F)F (stereo in doubt)
IV: COc1cc(C(F)F)ccc1CC1CC2(C1)CN(C(=O)[C@H]1C[C@@](C)(O)C1)C2
[ask] Order by pIC50, ascending. As an answer, provide the labels arranged in the order called for.
[reply] I, III, II, IV
(I: 7.70, III: 8.17, II: 8.48, IV: 9.36)

1: Cc1cccc(CC2CCC3(CC2)CN(C(=O)[C@H]2C[C@@](C)(O)C2)C3)c1
2: Cc1cc(CC2CCC3(CC2)CN(C(=O)[C@H]2C[C@@](C)(O)C2)C3)ccc1F
3: CCc1ccccc1CC1CC2(C1)CN(C(=O)[C@H]1C[C@@](C)(O)C1)C2
4: CC(C)(C)c1cccc(C2CCC3(CC2)CN(C(=O)[C@H]2C[C@@](C)(O)C2)C3)c1
5: C[C@@H](c1ccc2cnn(C)c2c1)C1CC2(C1)CN(C(=O)[C@H]1C[C@@](C)(O)C1)C2 (stereo in doubt)
[ask] Order by pIC50, ascending. As an answer, provide the labels arranged in the order called for.
[reply] 5, 1, 2, 3, 4

P: Cc1cc(C2CCC3(C2)CN(C(=O)[C@H]2C[C@@](C)(O)C2)C3)ccc1C(F)F (mixture of isomers)
Q: C[C@]1(O)C[C@@H](C(=O)N2CC3(CC(Cc4cccc5ccnn45)C3)C2)C1
R: CC(C)c1cccc(C2CCC3(CC2)CN(C(=O)[C@H]2C[C@@](C)(O)C2)C3)c1
S: Cn1ncc2ccc(CC3CCC4(CC3)CN(C(=O)[C@H]3C[C@@](C)(O)C3)C4)cc21
[ask] List these items ordered by pIC50, big to small. As an answer, provide the labels arranged in the order called for.
[reply] R, P, Q, S

A: CC(C)n1ncc2ccc(CC3CC4(C3)CN(C(=O)[C@H]3C[C@@](C)(O)C3)C4)cc21
B: Cc1c(OC2CCC3(C2)CN(C(=O)[C@H]2C[C@@](C)(O)C2)C3)cccc1C1CC1 (mixture of isomers)
C: COc1ccc(C2CCC3(CC2)CN(C(=O)[C@H]2C[C@@](C)(O)C2)C3)cc1C(F)(F)F
D: Cc1cc(C2CCC3(C2)CN(C(=O)[C@H]2C[C@@](C)(O)C2)C3)ccc1Cl (mixture of isomers)
[ask] List these items ordered by pIC50, big to small. As an answer, provide the labels arranged in the order called for.
[reply] D, A, B, C
(D: 7.92, A: 7.64, B: 7.43, C: 7.19)

A: Cc1cc(C2CCC3(C2)CN(C(=O)[C@H]2C[C@@](C)(O)C2)C3)cc(C(F)(F)F)c1 (mixture of isomers)
B: Cc1nc(O[C@H]2CCC3(C[C@@H]2C)CN(C(=O)[C@H]2C[C@@](C)(O)C2)C3)ccc1C(F)(F)F (stereo in doubt)
[ask] Sort A and B by pIC50 descending and give the first. Please reply using the label of the selected record.
[reply] B

A: C[C@]1(O)C[C@@H](C(=O)N2CC3(CCC(Cc4ccc(C(F)(F)F)cc4)C3)C2)C1 (mixture of isomers)
B: Cc1cnc(OC2CCC3(CC2)CN(C(=O)[C@H]2C[C@@](C)(O)C2)C3)c(Cl)c1
[ask] Sort A and B by pIC50 descending and give the first. Please reply using the label of the selected record.
[reply] A

P: CC(C)c1cccc(OC2CC3(C2)CN(C(=O)[C@H]2C[C@@](C)(O)C2)C3)c1C(F)(F)F
Q: C[C@]1(O)C[C@@H](C(=O)N2CC3(CC[C@H](Cc4cccc(C(F)(F)F)c4)C3)C2)C1 (stereo in doubt)
R: C[C@]1(O)C[C@@H](C(=O)N2CC3(CCC(Oc4cccc(C5CC5)c4)CC3)C2)C1
[ask] Order by pIC50, ascending. As an answer, provide the labels arranged in the order called for.
[reply] R, Q, P

Values were extracted from patent US11802111B2.
